Field: label. Allowed values: condition met (logP < 0.9) or condition not met (logP >= 0.9).

Nc1nonc1NC(=O)c1ccccc1	condition not met
Cc1nonc1C	condition met
[O-][n+]1onc(Cc2ccccc2)c1Cc1ccccc1	condition not met
O=Cc1no[n+]([O-])c1-c1ccccc1	condition not met
COC(=O)c1nonc1C	condition not met
[O-][n+]1onc(-c2ccccc2)c1Cl	condition not met

Please check: logP for CC(=O)Nc1nonc1C , strictly under 0.9 or not? condition met

In the record for Cc1c(Cl)no[n+]1[O-] , is logP less than 0.9? condition not met

Decide: logP of CCS(=O)(=O)c1no[n+]([O-])c1C strictly below 0.9? condition met

Check if logP falls below 0.9 for Cc1no[n+]([O-])c1C(N)=O . condition met

Lab note: logP threshold 0.9. Does this compound come in strictly under it? Cc1nonc1C(N)=O condition met

# check: logP < 0.9 for Cc1no[n+]([O-])c1S(=O)(=O)c1ccccc1 condition not met

Record CCc1nonc1C : is its logP strictly below 0.9? condition not met

# strict comparison: is reported logP < 0.9? input = Nc1nonc1-c1ccccc1 condition not met

###

Record form. Attribute: logP. Fill in for each entry.

Solved cases below.
Cc1c(Sc2ccccc2)no[n+]1[O-]	2.63
Cc1nonc1N	0.09
Nc1no[n+]([O-])c1-c1ccccc1	1.47

Please look at the items below and tell me logP for each one, in order.
1. c1cnon1
2. Cc1c(S(=O)(=O)c2ccccc2)no[n+]1[O-]
3. O=[N+]([O-])c1nonc1-c1ccccc1
4. Cc1c(C(N)=O)no[n+]1[O-]
5. Cc1c(-c2ccccc2)no[n+]1[O-]
6. Cc1no[n+]([O-])c1C=O
7. [O-][n+]1onc(CO)c1-c1ccccc1
8. COC(=O)Nc1nonc1C

1: 0.16; 2: 2.03; 3: 2.63; 4: 0.03; 5: 2.17; 6: 1.29; 7: 1.64; 8: 0.42

###

Observation Type: logP
Numbers only.

Known results for molecules:
Cc1nsnc1C	1.28
COC(=O)c1c(C)no[n+]1[O-]	0.69
[O-][n+]1onc(Cl)c1-c1ccccc1	2.82
CC(=O)Nc1nonc1N	-0.23
Cc1no[n+]([O-])c1N	-0.32
Cc1no[n+]([O-])c1S(=O)c1ccccc1 (configuration not stated)	1.75

For each entry beneath this line, provide reported logP.
1. [O-][n+]1onc2ccccc21
2. c1ccc2n[se]nc2c1
3. CC(=O)c1no[n+]([O-])c1C
4. Cc1nonc1-c1ccccc1[N+](=O)[O-]
5. Cc1no[n+]([O-])c1C

[1.43, 1.64, 0.8, 2.21, 0.23]

# map each molecule to its logP
1. [O-][n+]1onc(-c2ccccc2)c1CO
2. Cc1no[n+]([O-])c1Sc1ccccc1
3. Cc1c(N)no[n+]1[O-]
4. Cc1no[n+]([O-])c1-c1ccccc1
5. CNC(=O)Nc1nonc1C
6. Cc1nonc1S(=O)c1ccccc1 (configuration not stated)
7. CC(=O)c1c(C)no[n+]1[O-]

1. 1.77
2. 2.74
3. -0.17
4. 2.16
5. 0.3
6. 1.76
7. 0.98

Here are 4 molecules. What values of logP were reported for them?
1. Cc1c(Cc2ccccc2)no[n+]1[O-]
2. Cc1c(S(=O)c2ccccc2)no[n+]1[O-] (configuration not stated)
3. c1ccc2nonc2c1
4. COC(=O)c1no[n+]([O-])c1C

[2.08, 1.5, 1.69, 0.56]
